Assign melting point to each entry below.

Ask: I have this compound here, `O=C(c1ccc(Cl)cc1)C1(n2cnc(Cl)n2)CC1` , and I need its recorded melting point.
Reply: 85 °C

Ask: Quick one: melting point for COc1ccc2ccc(N3C(=O)c4ccccc4C3OCc3cccnc3)nc2n1 (centres undefined) ?
Reply: 175 °C

Ask: Data request, read-out melting point, for `CCc1nc2c(N)nc3ccccc3c2n1CCCC#Cc1ccccn1`
Reply: 188 to 192 °C

Ask: Entry `Cc1cccc(Cl)c1C(=O)N[C@@H](Cc1ccc(-c2c(C(F)(F)F)cc(C)n(C)c2=O)cc1)C(=O)O` has what melting point?
Reply: 220 to 223 °C

Ask: Fill in: melting point of `CC1(C)CC(=C(c2ccc(O)cc2)c2ccc(OCCOCCO)cc2)CC(C)(C)C1` is ___
Reply: 122 to 124 °C

Ask: What does the data say about its melting point? Entry: `CC(=O)c1cc2nc(SCc3nccc4c3OCO4)[nH]c2cc1C`
Reply: 141 to 143 °C

Ask: Quick one: melting point for Cc1ccc(-c2c(C)c(NC(=O)CC(C)(C)C)c(C)c3c2OCC3c2ccc(C(C)C)cc2)nc1 (centres undefined) ?
Reply: 228 to 229 °C

Ask: Quick check: melting point of CC(=O)OC1(C(C)=O)C(C)CC2C3CC(C)C4=CC(=O)C=CC4(C)C3(Br)C(O)CC21C (centres undefined) ?
Reply: 184 to 185 °C

Ask: Which melting point is reported for this compound? `CCOC(=O)CC(C#N)(CC(=O)OCC)c1ccc(F)cc1`
Reply: 68 to 70 °C

Origin of the recorded values: a melting point compilation (Tetko et al.; mined from patent text by program, amines drawn as free bases though some values may be those of a salt)
